Reported IC50 on Fibroblast growth factor receptor 1 (Homo sapiens, UniProt P11362) for assorted compounds, compiled from publications.

For orientation, consider the following solved cases.
- compound: "COCCOc1ccc(Nc2ncc(F)c(NCCCNS(=O)(=O)c3c(F)c(F)c(F)c(F)c3F)n2)cc1"
  IC50: "0.3 to 2 µM"
- compound: "CC(Oc1ccc2[nH]nc(/C=C/c3ccc(CN4CCOCC4)nn3)c2c1)c1c(Cl)cncc1Cl (centres unmarked)"
  IC50: "≤ 0.01 µM"
- compound: "CNC(=O)c1cc(C)c(F)c(-c2cnn3cc(-c4cnn(C)c4)c(O[C@H]4CCOC4)nc23)c1"
  IC50: "< 0.01 µM"

Task item: Value lookup for IC50; key = C=CC(=O)N1C[C@@H](Nc2ncc3cc(-c4c(Cl)c(OC)cc(OC)c4Cl)ccc3n2)C[C@H]1C(=O)N(C)C
Reply: 0.009 µM

Task item: Value lookup for IC50; key = C=CC(=O)N1C[C@@H](Nc2ncc3cc(-c4c(Cl)c(OC)cc(OC)c4Cl)ccc3n2)C[C@H]1C(=O)NC
Reply: 0.0089 µM

Task item: Value lookup for IC50; key = OCc1ccc(Nc2ncnc(Nc3cc(-c4ccco4)n[nH]3)n2)cc1
Reply: < 1.14 µM

Task item: Value lookup for IC50; key = COc1cc(Nc2ncnc(-n3cc(CC(N)=O)c4ccccc43)n2)cc(OC)c1OC
Reply: 0.921 to 5.52 µM

Task item: Value lookup for IC50; key = COc1cc(Nc2ncnc(-n3c(NCc4ccc(F)cc4)nc4ccccc43)n2)cc(OC)c1OC
Reply: < 0.798 µM
